Data credit: patent US20250206724A1

Reported DC50 is given for each of the following molecules.
Molecular target: CDK11A (Homo sapiens, UniProt Q9UQ88);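 further: compound preincubated 30 min with CDK11A-p58, then probe added and polarization (mP) read 15 min later, 0% displacement is probe plus enzyme, 100% is probe alone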
Sequence (Q9UQ88 346-783): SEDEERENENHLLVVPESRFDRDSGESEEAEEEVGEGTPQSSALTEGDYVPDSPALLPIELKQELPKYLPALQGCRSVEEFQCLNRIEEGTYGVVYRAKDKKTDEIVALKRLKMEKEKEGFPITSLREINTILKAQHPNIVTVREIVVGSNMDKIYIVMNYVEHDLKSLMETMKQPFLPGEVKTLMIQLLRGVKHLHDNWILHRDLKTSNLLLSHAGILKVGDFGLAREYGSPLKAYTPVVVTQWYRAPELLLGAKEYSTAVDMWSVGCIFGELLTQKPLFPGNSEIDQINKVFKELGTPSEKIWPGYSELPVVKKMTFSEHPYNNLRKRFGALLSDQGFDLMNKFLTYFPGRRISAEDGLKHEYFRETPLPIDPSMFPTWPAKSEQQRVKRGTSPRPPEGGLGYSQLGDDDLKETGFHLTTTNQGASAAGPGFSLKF
Conditions: displacement of SNS-032-Atto590 probe (0.002 μM) from CDK11A-p58 (0.032 uM), fluorescence polarization
Where a name gives a salt, the structure may show the parent alone.
Field: value (include unit after the number)

Sample records with DC50:
# MOLECULE, TARGET_UNDER_TEST, DC50
data = [
    ("CC(C)OC(=O)n1nc(NC(=O)[C@@H]2CCC(C)(C)NC2)c2cc(-c3cc(C#N)ccc3Cl)ccc21 (single isomer, unassigned) [cpd 226, hydrochloride]", "CDK11A (Homo sapiens, UniProt Q9UQ88)", "1010 nM"),
    ("CN(C)C1CC(C(=O)Nc2n[nH]c3ccc(-c4ccc(O)cc4Cl)cc23)C1 (stereo not shown) [cpd 62, hydrochloride]", "CDK11A (Homo sapiens, UniProt Q9UQ88)", "148 nM"),
    ("Cc1nc(-c2ccc(Cl)c(-c3ccc4[nH]nc(NC(=O)[C@@H]5CCCNC5)c4c3)c2)no1 [cpd 60, dihydrochloride]", "CDK11A (Homo sapiens, UniProt Q9UQ88)", "163 nM"),
]

Q. Bench note: what DC50 did CCC(=O)c1ccc(Cl)c(-c2ccc3[nH]nc(NC(=O)[C@@H]4CCCNC4)c3c2)c1 [cpd 43, hydrochloride] show?
A. 19 nM

Q. Need DC50 of CN1CCC(C(=O)Nc2n[nH]c3ccc(-c4cc(F)c(F)cc4F)cc23)CC1 [compound 126, hydrochloride] , thanks.
A. 913 nM

Q. What measured DC50 goes with O=C(Nc1n[nH]c2ccc(-c3cc(Cl)ccc3C(F)(F)F)cc12)C1CCCNC1 (stereo not shown) [cpd 15, trifluoroacetate] ?
A. 130 nM
